# Assayed Target: hGPR120 (Homo sapiens, UniProt Q5NUL3)
# Construct: expressed in transfected cells; host or cells: CHO-K1
# Sequence (Q5NUL3 1-361): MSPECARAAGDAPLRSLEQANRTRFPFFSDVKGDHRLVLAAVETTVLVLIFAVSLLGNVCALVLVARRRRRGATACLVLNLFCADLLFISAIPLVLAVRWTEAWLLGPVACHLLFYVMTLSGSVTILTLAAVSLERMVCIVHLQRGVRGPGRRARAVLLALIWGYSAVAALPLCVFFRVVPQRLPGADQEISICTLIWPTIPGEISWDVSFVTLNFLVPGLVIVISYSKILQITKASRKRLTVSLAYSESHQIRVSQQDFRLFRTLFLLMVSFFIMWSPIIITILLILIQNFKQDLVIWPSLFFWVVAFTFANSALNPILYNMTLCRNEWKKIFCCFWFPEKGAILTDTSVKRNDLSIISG
# Assay Method Text: Measurement of activity of GPR120 agonist (cell-based calcium fluorescence assay)
# Test Settings: CHO-K1 cells expressing Ga16 and hGPR120, Calcium 5 dye fluorescence; activity class; read-out: EC50
Please provide measured EC50 for the entries that follow.

CCCSc1ncccc1-c1cc(F)c(OCCCC(=O)O)c(F)c1 [Example 204]
< 200 nM
COc1ncccc1-c1cc(F)c(OCCCC(=O)O)c(F)c1 [Example 268]
200 to 2000 nM
O=C(O)CCCOc1c(F)cc(-c2ccccc2Oc2ccccc2)cc1F [Example 39]
< 200 nM
O=C(O)CCCOc1c(F)cc(-c2cccc(CC3CCC3)n2)cc1F [Example 103]
< 200 nM
CCCNc1cccc(-c2cc(F)c(OCCCC(=O)O)c(F)c2)c1 [Example 94]
200 to 2000 nM

Report EC50 for every entry below.
1. O=C(O)CCCOc1c(F)cc(-c2cccc(NC3CCCC3)c2)cc1F [Example 80]
2. C[C@@H](CCC(=O)O)Oc1c(F)cc(-c2cccnc2SC2CCC2)cc1F [Example 114]
3. O=C(O)CCCSc1c(F)cc(-c2cccc(OC3CCC3)n2)cc1F [Example 154]
4. CC(C)Sc1cccc(-c2cc(F)c(SCCCC(=O)O)c(F)c2)n1 [Example 140]
5. O=C(O)CCCCSc1c(F)cc(-c2cccnc2OC2CCC2)cc1F [Example 261]

< 200 nM
< 200 nM
< 200 nM
< 200 nM
< 200 nM

----------
Please provide measured pEC50 for the entries that follow.
# Assayed Target: hGPR120 (Homo sapiens)
# Construct: expressed in transfected cells; host or cells: CHO-K1
# Assay Method Text: Measurement of activity of GPR120 agonist (cell-based calcium fluorescence assay)
# Test Settings: CHO-K1 cells expressing Ga16 and hGPR120, Calcium 5 dye fluorescence; activity class; read-out: EC50
pEC50: −log10 of the molar value.

CC(C)Cc1ncccc1-c1cc(F)c(OCCCC(=O)O)c(F)c1 [Example 106]
4.70 to 5.70

Report pEC50 for every entry below.
1. CC(C)Sc1ncccc1-c1ccc(SCCCC(=O)O)c(F)c1 [Example 163]
2. CC(C)Oc1ncccc1-c1ccc(OCCCCC(=O)O)c(F)c1 [Example 264]
3. O=C(O)CCCOc1ccc(-c2cccc(Oc3ccccc3)n2)cc1 [Example 1]
4. Cc1cnc(OC(C)C)c(-c2ccc(SCCCC(=O)O)c(F)c2)c1 [Example 187]

> 6.70
5.70 to 6.70
5.70 to 6.70
> 6.70

----------
# Assayed Target: hGPR120 (Homo sapiens)
# Construct: expressed in transfected cells; host or cells: CHO-K1
# Sequence (Q5NUL3 1-361): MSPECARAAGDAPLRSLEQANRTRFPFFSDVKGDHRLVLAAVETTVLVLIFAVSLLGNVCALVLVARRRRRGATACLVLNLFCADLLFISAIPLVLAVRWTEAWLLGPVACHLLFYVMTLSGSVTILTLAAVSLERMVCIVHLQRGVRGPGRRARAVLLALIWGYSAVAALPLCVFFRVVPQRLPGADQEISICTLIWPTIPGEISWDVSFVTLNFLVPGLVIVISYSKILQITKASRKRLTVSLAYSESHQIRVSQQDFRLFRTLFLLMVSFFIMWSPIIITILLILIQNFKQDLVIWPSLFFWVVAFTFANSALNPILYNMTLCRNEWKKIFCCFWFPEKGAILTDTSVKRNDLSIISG
# Assay Method Text: Measurement of activity of GPR120 agonist (cell-based calcium fluorescence assay)
# Test Settings: CHO-K1 cells expressing Ga16 and hGPR120, Calcium 5 dye fluorescence; activity class; read-out: EC50
Endpoint: EC50

Example results:
CCCSc1ncccc1-c1cc(F)c(SCCCC(=O)O)c(F)c1
< 0.2 µM
O=C(O)CCCSc1c(F)cc(-c2cccnc2NCC2CC2)cc1F
0.2 to 2 µM
CC(C)(C)[Si](C)(C)OC1CCC(Oc2ncccc2-c2cc(F)c(OCCCC(=O)O)c(F)c2)C1 (centres unmarked)
> 20 µM
CC(C)(C)Sc1ncccc1-c1cc(F)c(OCCCC(=O)O)c(F)c1
2 to 20 µM

Report EC50 for every entry below.
1. CC(C)Oc1ncccc1-c1cc(F)c(SC(C)CCC(=O)O)c(F)c1 (centres unmarked)
2. O=C(O)CCCSc1ccc(-c2cccnc2NC2CCCC2)cc1F
3. COc1ccc(-c2cc(F)c(SCCCC(=O)O)c(F)c2)c(OC2CCCC2)c1
4. O=C(O)CCCSc1ccc(-c2cccc(F)c2OC2CCCC2)cc1F
5. O=C(O)CCCCOc1ccc(-c2cccnc2SC2CCCC2)cc1F
6. O=C(O)CCCOc1c(F)cc(-c2ccccc2NC2CCC2)cc1F
7. CC(C)Sc1ncccc1-c1cc(F)c(SCCCC(=O)O)c(F)c1
8. CC(C)Oc1cccc(-c2cc(F)c(SCC3(CC(=O)O)CC3)c(F)c2)c1

1: < 0.2 µM; 2: < 0.2 µM; 3: 0.2 to 2 µM; 4: > 20 µM; 5: < 0.2 µM; 6: < 0.2 µM; 7: < 0.2 µM; 8: < 0.2 µM

Report EC50 for every entry below.
1. CC(CCC(=O)O)Oc1ccc(-c2cccnc2SC2CCC2)cn1 (centres unmarked)
2. O=C(O)CCCCOc1c(F)cc(-c2cccnc2OCC2CC2)cc1F
3. O=C(O)CCCOc1cc(F)c(-c2cccc(SC3CCC3)n2)cc1F
4. CC(C)Oc1ncccc1-c1cc(F)c(OCCCCC(=O)O)c(F)c1
5. O=C(O)CCCOc1c(F)cc(-c2cccnc2-n2cccc2)cc1F

["> 20 µM", "< 0.2 µM", "0.2 to 2 µM", "< 0.2 µM", "0.2 to 2 µM"]

Report EC50 for every entry below.
1. CN(c1ccccc1)c1cccc(-c2cc(F)c(OCCCC(=O)O)c(F)c2)n1
2. O=C(O)CCCSc1ccc(-c2cccnc2OC2CCOC2)cc1F (centres unmarked)
3. O=C(O)CCCOc1c(F)cc(-c2cccnc2NC2CCCC2)cc1F
4. O=C(O)CCCCCOc1c(F)cc(-c2cccnc2OC2CCCC2)cc1F
5. O=C(O)CCCOc1cc(F)c(-c2cccnc2SC2CCC2)c(F)c1

["0.2 to 2 µM", "0.2 to 2 µM", "0.2 to 2 µM", "< 0.2 µM", "0.2 to 2 µM"]

Report EC50 for every entry below.
1. O=C(O)CCCSc1ccc(-c2cccc(OC3CCCC3)c2)cc1
2. O=C(O)CCCSc1c(F)cc(-c2cccc(OC3CCCC3)n2)cc1F
3. O=C(O)CCCOc1ccc(-c2ccccc2NC2CCC2)cc1
4. CCC(C)Sc1ncccc1-c1cc(F)c(OCCCC(=O)O)c(F)c1 (centres unmarked)
5. O=C(O)CCCOc1c(F)cc(-c2cccnc2OC2CC2)cc1F
6. O=C(O)CCCOc1c(F)cc(-c2cccc(SC3CCCC3)n2)cc1F
7. CC(C)Oc1ccccc1-c1ccc(OCCCC(=O)O)cc1

1: < 0.2 µM; 2: < 0.2 µM; 3: 0.2 to 2 µM; 4: 0.2 to 2 µM; 5: 0.2 to 2 µM; 6: < 0.2 µM; 7: 0.2 to 2 µM

Report EC50 for every entry below.
1. CC(C)CCSc1ncccc1-c1cc(F)c(OCCCC(=O)O)c(F)c1
2. CC(C)Oc1ncccc1-c1ccc(SCCCC(=O)O)cc1
3. O=C(O)CCCCOc1c(F)cc(-c2cccnc2OC2CCCC2)cc1F

0.2 to 2 µM
0.2 to 2 µM
< 0.2 µM

Report EC50 for every entry below.
1. O=C(O)CCCSc1c(F)cc(-c2cccc(SC3CCCC3)n2)cc1F
2. O=C(O)CCCOc1c(F)cc(-c2cccnc2OCCF)cc1F
3. CC(C)Oc1ccc(F)cc1-c1ccc(SCCCC(=O)O)c(F)c1
4. O=C(O)CCCCSc1c(F)cc(-c2cccnc2OCC2CCC2)cc1F

1: < 0.2 µM; 2: > 20 µM; 3: < 0.2 µM; 4: < 0.2 µM

Report EC50 for every entry below.
1. CC(C)Sc1ncccc1-c1ccc(OCCCC(=O)O)cc1
2. O=C(O)CCCCOc1c(F)cc(-c2cccnc2OC2CCOC2)cc1F (centres unmarked)

0.2 to 2 µM
0.2 to 2 µM
